Data origin, for the record: ChEMBL document CHEMBL1147731

- EXPERIMENTAL TARGET: NS3 (Hepatitis C virus, UniProt A3EZJ3)
- Sequence (A3EZJ3 whole entry): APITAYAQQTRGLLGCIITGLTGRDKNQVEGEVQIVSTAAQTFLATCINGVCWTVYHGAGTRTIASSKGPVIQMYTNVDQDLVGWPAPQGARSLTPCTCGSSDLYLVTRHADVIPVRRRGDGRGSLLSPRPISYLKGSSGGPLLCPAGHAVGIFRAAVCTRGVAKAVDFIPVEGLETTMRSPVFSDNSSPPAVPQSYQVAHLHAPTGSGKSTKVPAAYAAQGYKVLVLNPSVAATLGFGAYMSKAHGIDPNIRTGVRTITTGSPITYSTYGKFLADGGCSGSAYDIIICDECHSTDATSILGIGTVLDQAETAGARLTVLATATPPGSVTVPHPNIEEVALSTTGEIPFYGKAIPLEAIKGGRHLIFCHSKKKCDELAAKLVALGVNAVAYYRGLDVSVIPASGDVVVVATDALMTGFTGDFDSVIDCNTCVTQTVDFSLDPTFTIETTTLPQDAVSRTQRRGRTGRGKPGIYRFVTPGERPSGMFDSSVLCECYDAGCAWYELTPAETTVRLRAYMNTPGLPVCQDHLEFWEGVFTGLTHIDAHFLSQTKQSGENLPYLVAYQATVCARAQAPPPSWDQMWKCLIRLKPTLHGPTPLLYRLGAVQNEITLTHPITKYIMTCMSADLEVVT
- TEST NAME: Inhibition of HCV NS3 protease
- Set-up: species or system Hepacivirus hominis
Numbered stars: 1 amine (or outer) side, 2 acyl side, 3 side chain; on linkers, the order of the positions; unused ones are H or OH. Bridge positions count the residues as written; N and C are the ends. Square brackets hold non-standard residues; d marks the D form. Peptide text beside a SMILES is read from it. * marks the point of attachment. Tic(7-O(CH2)6CO) = O=C([C@@H]1Cc2ccc(OCCCCCCC(=O)[*:3])cc2CN1[*:1])[*:2]; X1 = CCCC(N[*:1])C(=O)C(=O)[*:2]; Chg = N[C@H](C(=O)O)C1CCCCC1; Phg = N[C@H](C(=O)O)c1ccccc1; OtBu = CC(C)(C)O*
ASSAY READOUT: pKi
The read-out pKi is expressed as -log10 of concentration in moles per litre.

Some molecules with known pKi results, for comparison:
Task: Report pKi for CCCC(NC(=O)[C@@H]1Cc2ccc3cc2CN1C(=O)[C@H](C1CCCCC1)NC(=O)CCCCCCO3)C(=O)C(=O)NCC(=O)N[C@H](C(=O)O)c1ccccc1 (some centres undefined) ([Chg][Tic(7-O(CH2)6CO)][X1]G[Phg]-OH; lactam N-2) please.
Output: 7.82

Task: Report pKi for CCCC(NC(=O)[C@@H]1Cc2ccc3cc2CN1C(=O)[C@H](C1CCCCC1)NC(=O)CCCCCCO3)C(=O)C(=O)NCC(=O)N[C@H](C(=O)OC(C)(C)C)c1ccccc1 (some centres undefined) ([Chg][Tic(7-O(CH2)6CO)][X1]G[Phg]-OtBu; lactam N-2) please.
Output: 6.59

Task: Report pKi for CCCC(NC(=O)[C@@H]1Cc2ccc3cc2CN1C(=O)[C@H](C1CCCCC1)NC(=O)CCCCCCO3)C(=O)C(=O)NCC(=O)O (some centres undefined) please.
Output: 5.52

Further cases:
Task: Report pKi for CCCC(NC(=O)[C@@H]1Cc2ccc3cc2CN1C(=O)[C@H](C1CCCCC1)NC(=O)CCCCCCO3)C(=O)C(=O)NCC(=O)N[C@H](C(=O)N(C)C)c1ccccc1 (some centres undefined) ([Chg][Tic(7-O(CH2)6CO)][X1]G[Phg]-NMe2; lactam N-2) please.
Output: 7.68

----------
- TEST NAME: Oral bioavailability in rat
- Type: ADME, organism-based
- COND: in vivo
Numbered stars: 1 amine (or outer) side, 2 acyl side, 3 side chain; on linkers, the order of the positions; unused ones are H or OH. Bridge positions count the residues as written; N and C are the ends. Square brackets hold non-standard residues; d marks the D form. Peptide text beside a SMILES is read from it. Tic(7-O(CH2)6CO) = O=C([C@@H]1Cc2ccc(OCCCCCCC(=O)[*:3])cc2CN1[*:1])[*:2]; X1 = CCCC(N[*:1])C(=O)C(=O)[*:2]; Chg = N[C@H](C(=O)O)C1CCCCC1; Phg = N[C@H](C(=O)O)c1ccccc1
ASSAY READOUT: bioavailability

Task: Report bioavailability for CCCC(NC(=O)[C@@H]1Cc2ccc3cc2CN1C(=O)[C@H](C1CCCCC1)NC(=O)CCCCCCO3)C(=O)C(=O)NCC(=O)N[C@H](C(=O)N(C)C)c1ccccc1 (stereo partly specified) ([Chg][Tic(7-O(CH2)6CO)][X1]G[Phg]-NMe2; lactam N-2) please.
Output: < 10%
